Molecular target: T1, hANGPTL3(17-460)-His (human, UniProt Q9Y5C1 17-460)
T1 construct: Bought protein (R&D Systems); also called full-length mature human ANGPTL3 with a C-terminal decahistidine tag; Human ANGPTL3 (17-460)-His
T1 sequence: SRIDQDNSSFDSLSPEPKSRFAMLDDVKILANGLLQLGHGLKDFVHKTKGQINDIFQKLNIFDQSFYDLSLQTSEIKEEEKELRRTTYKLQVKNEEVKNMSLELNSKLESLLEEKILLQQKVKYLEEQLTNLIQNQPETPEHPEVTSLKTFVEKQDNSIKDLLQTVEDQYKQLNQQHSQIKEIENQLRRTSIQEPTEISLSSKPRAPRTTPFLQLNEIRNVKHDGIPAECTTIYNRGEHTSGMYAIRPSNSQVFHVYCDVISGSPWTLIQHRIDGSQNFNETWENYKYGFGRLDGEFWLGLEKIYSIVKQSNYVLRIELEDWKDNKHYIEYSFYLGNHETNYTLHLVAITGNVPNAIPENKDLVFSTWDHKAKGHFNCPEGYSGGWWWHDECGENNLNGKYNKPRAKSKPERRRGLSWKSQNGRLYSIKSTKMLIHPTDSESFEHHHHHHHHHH
Experiment: SPR Biacore, antigen captured, 25C, pH 7.4, HBS-EP
Here the recorded kon is given for each entry.

# binder, kon (M⁻¹ s⁻¹)
measured = [
    ("H4H1292P (antibody, IgG4, V domains shown) VH: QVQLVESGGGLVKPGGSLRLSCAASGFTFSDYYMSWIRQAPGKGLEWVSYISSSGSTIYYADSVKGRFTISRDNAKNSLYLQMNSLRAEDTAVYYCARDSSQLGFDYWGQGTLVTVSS VL: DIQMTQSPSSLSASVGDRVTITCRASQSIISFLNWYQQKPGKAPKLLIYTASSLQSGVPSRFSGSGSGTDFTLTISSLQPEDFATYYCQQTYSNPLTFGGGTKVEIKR", 341000),
    ("H4H1263S (antibody, IgG4, V domains shown) VH: QVQLVQSGGGVVQPGRSLRLSCAASGFTFSTYGMHWVRQAPGKGLEWMAVISFDRGNKYYADSVKGRFTISRDNSKNTLYLQMNSLRAEDTAVYYCAKGGGSGTFYYYYGMDVWGQGTTVTVSS VL: DIQMTQSPSSVSASVGNRVTITCRASQGISSWLAWYHQKPGKVPKVLIYAASSLQSGVPSRFSGSGSGTDFTLTISSLQPEDFATYYCQQANSFPFTFGPGTKVEIKR", 508000),
    ("H4H1279P (antibody, IgG4, V domains shown) VH: QVQLVESGGGLVKPGGSLRLSCAASGFTFSDYYMSWIRQAPGKGLEWVSYIGSSGVNMYYADSVKGRFTISRDNAKNSLYLEMNSLRAEDTAVYYCARDSSQLGFDYWGQGTLVTVSS VL: DIQMTQSPSSLSASVGDRVTITCRTSQNIINFLNWYQQKPGKAPKLLIYTTSTLQSGVPSRFSGSGSGTDFTLSINSLQPEDFATYFCQQTYSNPLTFGGGTKLEIKR", 288000),
]
